Assay: 10x dilution of soluble forms with standard IV solutions (pH, precipitate)
Format: physicochemical
Details: Cpd A salt solution diluted 10x with 5% Dextrose + 0.9% NaCl
Protocol: The amount of Compound A or Compound B calculated for selected concentrations was weighed into volumetric flasks. Equimolar quantities of combining acid, amino acid, or base were added either as solutions or in dry form. Deionized water was added to bring the volume to that desired for the preselected concentrations.. All flasks were sonicated for 15 minutes, allowed to stand at room temperature for 30 minutes, then filtered through a fine frit sintered glass funnel. […]
Label Condition met when Solution 3 pH dil is at or above 5; otherwise label Condition not met.

>  <Compound>
CCn1cc(C(=O)O)c(=O)c2cc(F)c(N3CCNCC3)cc21 [A D-Galacturonic]

>  <Label>
Condition met

$$$$
>  <Compound>
CCn1cc(C(=O)O)c(=O)c2cc(F)c(N3CCNCC3)cc21 [A Acetic]

>  <Label>
Condition met

$$$$
>  <Compound>
CCn1cc(C(=O)O)c(=O)c2cc(F)c(N3CCNCC3)cc21 [A Methane Sulphonic]

>  <Label>
Condition not met

$$$$
>  <Compound>
CCn1cc(C(=O)O)c(=O)c2cc(F)c(N3CCNCC3)cc21 [A Isethionic]

>  <Label>
Condition not met

$$$$
>  <Compound>
CCn1cc(C(=O)O)c(=O)c2cc(F)c(N3CCNCC3)cc21 [A Hydrochloric]

>  <Label>
Condition not met

$$$$
>  <Compound>
CCn1cc(C(=O)O)c(=O)c2cc(F)c(N3CCNCC3)cc21 [A L-Cysteic]

>  <Label>
Condition not met

$$$$
>  <Compound>
CCn1cc(C(=O)O)c(=O)c2cc(F)c(N3CCNCC3)cc21 [A D-Gluconic]

>  <Label>
Condition not met

$$$$
>  <Compound>
CCn1cc(C(=O)O)c(=O)c2cc(F)c(N3CCNCC3)cc21 [A L-Aspartic]

>  <Label>
Condition not met

$$$$
>  <Compound>
CCn1cc(C(=O)O)c(=O)c2cc(F)c(N3CCNCC3)cc21 [A Lactic]

>  <Label>
Condition not met

$$$$

---

# MIC µg/ml Staph. aureus UC-76 per record follows
Test system: Staph. aureus UC-76
Experiment: Antibacterial activity, MIC
Type: cell-based
Conditions: based on content of compound B

>  <Compound>
CCn1cc(C(=O)O)c(=O)c2cc(F)c(N3CCNCC3)nc21 [B Glutamate]

>  <System name>
Staph. aureus UC-76

>  <Modifier sign>
<

>  <MIC µg/ml Staph. aureus UC-76 (µg/mL)>
0.1

$$$$
>  <Compound>
CCn1cc(C(=O)O)c(=O)c2cc(F)c(N3CCNCC3)nc21 [B Gluconate]

>  <System name>
Staph. aureus UC-76

>  <Modifier sign>
=

>  <MIC µg/ml Staph. aureus UC-76 (µg/mL)>
0.4

$$$$
>  <Compound>
CCn1cc(C(=O)O)c(=O)c2cc(F)c(N3CCNCC3)nc21 [B Aspartate]

>  <System name>
Staph. aureus UC-76

>  <Modifier sign>
=

>  <MIC µg/ml Staph. aureus UC-76 (µg/mL)>
0.1

$$$$
>  <Compound>
CCn1cc(C(=O)O)c(=O)c2cc(F)c(N3CCNCC3)nc21 [Compound B, reference compound]

>  <System name>
Staph. aureus UC-76

>  <Modifier sign>
=

>  <MIC µg/ml Staph. aureus UC-76 (µg/mL)>
0.2

$$$$
